- System: K. pneumoniae ATCC 10031
- Experiment Description: MIC against K. pneumoniae ATCC 10031
- Format: cell-based
- Condition: Klebsiella pneumoniae, ATCC10031
Reported Metric: MIC

Compound | Reported Metric | Measured
CSC1O[C@H]([C@H](NC(=O)[C@H]2NC[C@@H]3CC(NCc4ccccc4F)CCO[C@H]32)[C@H](C)Cl)C(O)[C@@H](O)[C@H]1O (stereo partly shown) | MIC | > 64 µg/mL
CSC1O[C@H]([C@H](NC(=O)[C@H]2NC[C@@H]3C[C@@H](O)[C@@H](O)CO[C@H]32)[C@H](C)Cl)C(O)[C@@H](O)[C@H]1O (stereo partly shown) | MIC | > 64 µg/mL
CSC1O[C@H]([C@H](NC(=O)[C@H]2NC[C@@H]3CN(C(=N)N)CCO[C@H]32)[C@H](C)Cl)C(O)[C@@H](O)[C@H]1O (stereo partly shown) | MIC | > 64 µg/mL
CCCN1CCO[C@@H]2[C@H](CN[C@@H]2C(=O)N[C@H]([C@H](C)Cl)[C@H]2OC(SC)[C@H](O)[C@H](O)C2O)C1 (stereo partly shown) | MIC | > 64 µg/mL
CSC1O[C@H]([C@H](NC(=O)[C@H]2NC[C@@H]3C[C@H]4OC(C)(C)O[C@H]4CO[C@H]32)[C@H](C)Cl)C(O)[C@@H](O)[C@H]1O (stereo partly shown) | MIC | > 64 µg/mL
CSC1O[C@H]([C@H](NC(=O)[C@H]2NC[C@@H]3CC(N)CCO[C@H]32)[C@H](C)Cl)C(O)[C@@H](O)[C@H]1O (stereo partly shown) | MIC | > 64 µg/mL
CSC1O[C@H]([C@H](NC(=O)[C@H]2NC[C@@H]3CCCCO[C@@H]32)[C@H](C)Cl)C(O)[C@@H](O)[C@H]1O (stereo partly shown) | MIC | > 64 µg/mL

====

- System: S. pneumoniae ATCC 49619
- Experiment Description: MIC against S. pneumoniae ATCC 49619
- Type: cell-based
- Condition: Streptococcus pneumoniae, ATCC49619; S. pneumoniae ATCC 49619; read-out: MIC
Reported Metric: MIC (µg/mL)

Compound | Reported Metric | Value Modifier | Measured
COc1ccc(C2CCO[C@@H]3[C@H](CN[C@@H]3C(=O)N[C@H]([C@H](C)Cl)[C@H]3OC(SC)[C@H](O)[C@H](O)C3O)C2)cc1 (some centres unmarked) | MIC | ≤ | 0.06
CSC1O[C@H]([C@H](NC(=O)[C@@H]2[C@@H]3OCC=CC[C@H]3CN2C2CC2)[C@H](C)Sc2ccc(-c3cccnc3)cc2)C(O)[C@@H](O)[C@H]1O (some centres unmarked) [FSA-214009a] | MIC | = | 4
CSC1O[C@H]([C@H](NC(=O)[C@H]2NC[C@@H]3C[C@@H](c4cc(F)cc(F)c4)CCO[C@H]32)[C@H](C)Cl)C(O)[C@@H](O)[C@H]1O (some centres unmarked) | MIC | ≤ | 0.06
CSC1O[C@H]([C@H](NC(=O)[C@H]2NC[C@@H]3C[C@H]4OC(C)(C)O[C@H]4CO[C@H]32)[C@H](C)Cl)C(O)[C@@H](O)[C@H]1O (some centres unmarked) | MIC | = | 8
CSC1O[C@H]([C@H](NC(=O)[C@H]2NC[C@@H]3C[C@@H](C4CCNCC4)CCO[C@H]32)[C@H](C)Cl)C(O)[C@@H](O)[C@H]1O (some centres unmarked) | MIC | = | 1
CSC1O[C@H]([C@H](NC(=O)[C@H]2NC[C@@H]3CC(c4ccc(-c5ccccc5)cc4)=CCO[C@H]32)[C@H](C)Cl)C(O)[C@@H](O)[C@H]1O (some centres unmarked) | MIC | = | 4
CSC1O[C@H]([C@H](NC(=O)[C@H]2NC[C@@H]3C[C@@H](C4CCN(C)CC4)CCO[C@H]32)[C@H](C)Cl)C(O)[C@@H](O)[C@H]1O (some centres unmarked) | MIC | = | 1
CSC1O[C@H]([C@H](NC(=O)[C@H]2NC[C@@H]3C[C@@H](c4ccc(F)cc4F)CCO[C@H]32)[C@H](C)Cl)C(O)[C@@H](O)[C@H]1O (some centres unmarked) | MIC | ≤ | 0.06
CSC1O[C@H]([C@H](NC(=O)[C@H]2NC[C@@H]3CC=CCO[C@H]32)[C@H](C)Sc2ccc(-c3cncnc3)cc2)C(O)[C@@H](O)[C@H]1O (some centres unmarked) | MIC | ≤ | 0.06
CSC1O[C@H]([C@H](NC(=O)[C@H]2NC[C@@H]3CC(NCc4ccccc4F)CCO[C@H]32)[C@H](C)Cl)C(O)[C@@H](O)[C@H]1O (some centres unmarked) | MIC | = | 32
CSC1O[C@H]([C@H](NC(=O)[C@H]2NC[C@H]3CC=CCO[C@H]32)[C@H](C)Cl)C(O)[C@@H](O)[C@H]1O (some centres unmarked) | MIC | = | 1

Where do these numbers come from? They come from patent US20220073554A1.
